Attribution: patent US20210246204A1

measured_target: human Siglec-7 on primary human monocyte-derived dendritic cells (human, UniProt Q9Y286 19-467)
Sequence (Q9Y286 19-467): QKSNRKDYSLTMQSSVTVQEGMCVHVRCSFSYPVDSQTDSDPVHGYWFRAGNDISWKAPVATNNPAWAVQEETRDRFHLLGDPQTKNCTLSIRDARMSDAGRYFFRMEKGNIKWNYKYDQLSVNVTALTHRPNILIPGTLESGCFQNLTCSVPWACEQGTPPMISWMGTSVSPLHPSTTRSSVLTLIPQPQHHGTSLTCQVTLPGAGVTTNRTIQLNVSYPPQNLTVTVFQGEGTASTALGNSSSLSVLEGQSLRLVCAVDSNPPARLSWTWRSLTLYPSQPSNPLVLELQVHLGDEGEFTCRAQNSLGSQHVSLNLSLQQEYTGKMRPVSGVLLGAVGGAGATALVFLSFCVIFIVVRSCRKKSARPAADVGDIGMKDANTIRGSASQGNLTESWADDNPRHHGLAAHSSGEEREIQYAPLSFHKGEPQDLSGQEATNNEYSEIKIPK
experiment: cell-based or functional assay
measured_endpoint: Fold increase in potency compared to AB-H8 (fold)

binder	test_value
S7AB-H8.8 (antibody, V domains shown) VH: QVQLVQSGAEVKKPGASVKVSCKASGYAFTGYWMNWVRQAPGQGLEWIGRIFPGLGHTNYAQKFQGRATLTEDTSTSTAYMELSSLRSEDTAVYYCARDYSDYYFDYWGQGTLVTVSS VL: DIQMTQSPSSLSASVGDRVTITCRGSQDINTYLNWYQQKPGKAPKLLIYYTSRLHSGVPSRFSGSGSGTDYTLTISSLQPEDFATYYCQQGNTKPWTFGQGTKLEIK	3.8
